# System: Rattus norvegicus
# assay_remarks: Biodistribution in uterus / blood of immature female rat after 5 hour administration of 3 micro Ci (111 kBq) in the absence of 60 microg estradiol
# Type: ADME, organism-based
# condition: in vivo
observation_type: uterus to blood ratio (%)

chemical_smiles: C[C@@H]1Cc2c(ccc(O)c2F)[C@H]2CC[C@@]3(C)[C@@H](CC[C@@]3(O)/C=C/I)[C@H]12
result_value: 16.4
--
chemical_smiles: C[C@@H]1Cc2c(ccc(O)c2F)[C@H]2CC[C@@]3(C)[C@@H](CC[C@@]3(O)/C=C\I)[C@H]12
result_value: 10.01
--
chemical_smiles: C[C@]12CC[C@@H]3c4cc(F)c(O)cc4CC[C@H]3[C@@H]1CC[C@@]2(O)/C=C\I
result_value: 12.09
--
chemical_smiles: C[C@@H]1Cc2cc(O)c(F)cc2[C@H]2CC[C@@]3(C)[C@@H](CC[C@@]3(O)/C=C\I)[C@H]12
result_value: 11.08

1: CO[C@H]1C[C@@]2(C)[C@@H](CC[C@@]2(O)/C=C/I)[C@@H]2CCc3cc(O)c(F)cc3[C@H]21
2: C[C@]12CC[C@@H]3c4ccc(O)c(F)c4CC[C@H]3[C@@H]1CC[C@@]2(O)/C=C\I
Inquiry: Lower uterus to blood ratio: 1 or 2 ? Write down the label of the entry you select.
Reply text: 1
